Biological target: Integrin alpha-V/beta-3 (Homo sapiens, UniProt P05106+P06756)
Sequence (P05106 27-788 limits assumed): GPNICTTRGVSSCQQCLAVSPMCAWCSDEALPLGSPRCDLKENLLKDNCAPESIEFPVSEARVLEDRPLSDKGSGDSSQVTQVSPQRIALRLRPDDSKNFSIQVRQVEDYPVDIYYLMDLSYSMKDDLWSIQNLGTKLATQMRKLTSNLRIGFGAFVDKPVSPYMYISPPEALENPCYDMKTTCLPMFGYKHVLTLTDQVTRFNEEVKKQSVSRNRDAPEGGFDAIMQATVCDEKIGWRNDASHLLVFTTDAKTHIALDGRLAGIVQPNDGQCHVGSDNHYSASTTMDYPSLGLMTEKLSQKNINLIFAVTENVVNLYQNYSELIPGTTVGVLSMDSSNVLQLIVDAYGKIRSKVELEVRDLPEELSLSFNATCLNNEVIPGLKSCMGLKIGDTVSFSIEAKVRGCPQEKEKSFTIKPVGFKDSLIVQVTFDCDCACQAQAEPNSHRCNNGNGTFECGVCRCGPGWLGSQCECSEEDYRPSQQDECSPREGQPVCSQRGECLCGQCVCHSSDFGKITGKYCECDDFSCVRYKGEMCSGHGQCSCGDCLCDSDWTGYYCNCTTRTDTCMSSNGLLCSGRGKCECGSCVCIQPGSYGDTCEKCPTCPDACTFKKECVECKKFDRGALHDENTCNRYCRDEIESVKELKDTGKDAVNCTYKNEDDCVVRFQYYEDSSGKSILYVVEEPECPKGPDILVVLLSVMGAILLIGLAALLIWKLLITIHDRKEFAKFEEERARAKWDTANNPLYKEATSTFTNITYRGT
Sequence (P06756 31-889 limits assumed): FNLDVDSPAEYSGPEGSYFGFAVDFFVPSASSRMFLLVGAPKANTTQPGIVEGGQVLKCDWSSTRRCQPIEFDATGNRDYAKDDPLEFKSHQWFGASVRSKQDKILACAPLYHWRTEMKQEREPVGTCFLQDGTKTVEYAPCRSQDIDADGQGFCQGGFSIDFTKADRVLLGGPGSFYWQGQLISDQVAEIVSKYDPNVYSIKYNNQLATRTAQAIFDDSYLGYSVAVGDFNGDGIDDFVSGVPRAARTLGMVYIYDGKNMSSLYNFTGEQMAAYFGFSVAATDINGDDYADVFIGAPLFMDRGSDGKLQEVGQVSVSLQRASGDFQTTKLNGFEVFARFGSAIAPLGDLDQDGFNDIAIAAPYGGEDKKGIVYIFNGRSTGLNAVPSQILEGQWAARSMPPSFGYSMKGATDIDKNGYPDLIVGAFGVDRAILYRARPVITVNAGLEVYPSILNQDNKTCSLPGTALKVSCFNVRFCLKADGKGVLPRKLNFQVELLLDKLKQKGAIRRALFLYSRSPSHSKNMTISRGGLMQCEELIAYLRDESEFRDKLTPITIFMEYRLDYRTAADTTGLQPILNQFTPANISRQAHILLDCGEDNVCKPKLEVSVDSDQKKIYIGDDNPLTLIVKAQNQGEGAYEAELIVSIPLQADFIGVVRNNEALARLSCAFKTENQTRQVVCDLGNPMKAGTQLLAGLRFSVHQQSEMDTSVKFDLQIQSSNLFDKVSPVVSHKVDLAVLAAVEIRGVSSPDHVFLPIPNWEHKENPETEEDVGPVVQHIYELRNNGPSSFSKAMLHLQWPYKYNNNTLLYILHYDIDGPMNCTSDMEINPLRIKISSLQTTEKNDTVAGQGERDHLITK
Sequence (P06756 891-1048 limits assumed): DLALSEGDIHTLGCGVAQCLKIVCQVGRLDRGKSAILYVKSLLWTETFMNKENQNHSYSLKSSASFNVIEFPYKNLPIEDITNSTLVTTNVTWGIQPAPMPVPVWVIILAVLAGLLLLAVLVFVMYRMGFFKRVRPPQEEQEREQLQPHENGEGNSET
Assay: Inhibitory activity against alpha v beta-3 receptor using scintillation proximity assay (SPAV3)
Examples of compounds with documented pIC50 follow.
Would you please state pIC50, meaning minus log10 of the concentration in mol/L, as a bare number?

Recorded results for 5 compounds are shown here.
>  <compound>
CC(C)c1ncc([C@@H](CCCCCCc2ccc3c(n2)NCCC3)CC(=O)O)cn1

>  <pIC50>
9.28

$$$$
>  <compound>
O=C(O)CC(/C=C/CCCCc1ccc2c(n1)NCCC2)c1cccc(F)c1 (stereo not given)

>  <pIC50>
8.14

$$$$
>  <compound>
O=C(O)CC(CCCCCCc1ccc2c(n1)NCCC2)c1cccc(F)c1 (stereo not given)

>  <pIC50>
9.03

$$$$
>  <compound>
O=C(O)C[C@H](NC(=O)CCCCc1ccc2c(n1)NCCC2)c1cccc(F)c1

>  <pIC50>
7.56

$$$$
>  <compound>
O=C(O)C[C@H](CCCCCCc1ccc2c(n1)NCCC2)c1cnc2ccccc2c1

>  <pIC50>
9.70

$$$$

Task: Which pIC50 value is on record for O=C(O)C[C@H](CCCCCCc1ccc2c(n1)NCCC2)c1ccc2c(c1)OCC2 ?
Result: 9.68

Task: Which pIC50 value is on record for COc1ccc([C@@H](CCCCCCc2ccc3c(n2)NCCC3)CC(=O)O)cn1 ?
Result: 9.19

Task: Which pIC50 value is on record for COc1ncc([C@@H](CCCCCCc2ccc3c(n2)NCCC3)CC(=O)O)cn1 ?
Result: 9.96

Task: Which pIC50 value is on record for Cc1ncc([C@@H](CCCCCCc2ccc3c(n2)NCCC3)CC(=O)O)cn1 ?
Result: 10.10

Task: Which pIC50 value is on record for O=C(O)C[C@H](CCCCCCc1ccc2c(n1)NCCC2)c1cncnc1 ?
Result: 10.15

###

Experiment: Half life in rat at 0.5 mg/kg dose in intravenous and 1 mg/kg of peroral
Type: ADME, organism-based
Details: in vivo
Examples of compounds with documented half-life follow.

>  <input smiles>
Cc1ncc([C@@H](CCCCCCc2ccc3c(n2)NCCC3)CC(=O)O)cn1

>  <measure>
half-life

>  <obs value>
5.1 h

$$$$

Turning now to a further record.
Task: Which half-life value is on record for O=C(O)C[C@H](CCCCCCc1ccc2c(n1)NCCC2)c1cncnc1 ?
Result: 4.5 h

###

Assay: Half life in monkey at 0.2 mg/kg dose in intravenous and 1 mg/kg of peroral
Format: ADME, organism-based
Conditions: cercopithecidae, in vivo
measure: half-life

>  <input smiles>
Cc1ncc([C@@H](CCCCCCc2ccc3c(n2)NCCC3)CC(=O)O)cn1

>  <half-life>
17 h

$$$$

Turning now to a further record.
Task: Which half-life value is on record for O=C(O)C[C@H](CCCCCCc1ccc2c(n1)NCCC2)c1cncnc1 ?
Result: 2.3 h

The reported measurements were obtained from ChEMBL document CHEMBL1138759.
